Tgt: T1, recombinant human activated Factor VII (FVIIa) (human, UniProt P08709 61-212; P08709 213-466, ten glutamate residues of the Gla domain may be gamma-carboxylated)
T1 construct: chains tethered by a disulfide bond; also called Factor VIIa; rFVIIa
T1 sequence 1: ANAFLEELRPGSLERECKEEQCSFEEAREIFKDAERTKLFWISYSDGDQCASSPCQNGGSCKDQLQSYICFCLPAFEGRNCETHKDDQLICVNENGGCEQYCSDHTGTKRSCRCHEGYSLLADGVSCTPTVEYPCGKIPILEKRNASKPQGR
T1 sequence 2: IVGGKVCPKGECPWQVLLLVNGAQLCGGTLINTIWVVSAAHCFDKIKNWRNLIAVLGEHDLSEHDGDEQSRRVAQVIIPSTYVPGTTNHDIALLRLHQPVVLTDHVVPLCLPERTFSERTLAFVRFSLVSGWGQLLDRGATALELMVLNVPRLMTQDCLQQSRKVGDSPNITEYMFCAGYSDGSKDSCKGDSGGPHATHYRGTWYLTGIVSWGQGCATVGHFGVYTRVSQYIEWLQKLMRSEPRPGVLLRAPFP
Test method notes: BLI (Fortebio)
pKd: −log10 of the molar value.
Parameter: pKd. Scope: all listed entries.
Endpoint: pKd

| Binder | Numeric result |
| --- | --- |
| VH SEQ ID NO 634 / VL SEQ ID NO 382 (antibody, IgG4, V domains shown, humanized 11F2; IgG4 S228P/kappa) VH: QVQLQESGPGLVKPSQTLSLTCTVSGYSISSDSAWSWIRQPPGKGLEWIGYIQYSGSTNYNPSLKSRVTISRDTSKNQFSLKLSSVTAADTAVYYCARSVNYYGNSFAVGYWGQGTLVTVSS VL: EIVLTQSPATLSLSPGERATLSCRASQGLSDYLHWYQQKPGEAPRLLIKYASQPATGIPARFSGSGSGTDFTLTISSLEPEDFAVYYCQNGHSFPLTFGQGTKLEIK | 8.92 |
| VH SEQ ID NO 562 / VL SEQ ID NO 454 (antibody, IgG4, V domains shown, humanized 11F2; IgG4 S228P/kappa) VH: QVQLQESGPGLVKPSDTLSLTCAVSGYSISSDSAWSWIRQPPGKGLEWIGYIQYSGSTNYNPSLKSRVTMSRDTSKNQFSLKLSSVTALDTAVYYCARSVNYYGNSFAVGPWGQGTLVTVSS VL: EIVLTQSPATLSLSPGERATLSCRASQGVSDYLHWYQQKPGEAPRLLIKYASQPATGIPARFSGSGSGTDFTLTISSLEPEDFAVYYCQNGHSFPLTFGQGTKLEIK | 8.85 |
| VH SEQ ID NO 634 / VL SEQ ID NO 342 (antibody, IgG4, V domains shown, humanized 11F2; IgG4 S228P/kappa) VH: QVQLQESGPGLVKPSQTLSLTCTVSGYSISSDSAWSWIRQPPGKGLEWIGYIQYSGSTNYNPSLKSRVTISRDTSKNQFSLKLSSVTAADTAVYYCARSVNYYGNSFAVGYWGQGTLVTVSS VL: EIVLTQSPATLSLSPGERATLSCRASQGISDYLHWYQQKPGQAPRLLIKYTSQPATGIPARFSGSGSGRDFTLTISSLEPEDFAVYYCQNGHSFPLTFGAGTKLELK | 9.00 |
| VH SEQ ID NO 562 / VL SEQ ID NO 382 (antibody, IgG4, V domains shown, humanized 11F2; IgG4 S228P/kappa) VH: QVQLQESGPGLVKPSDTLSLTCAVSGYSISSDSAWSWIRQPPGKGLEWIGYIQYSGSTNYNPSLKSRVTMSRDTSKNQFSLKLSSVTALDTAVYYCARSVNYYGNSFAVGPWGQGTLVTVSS VL: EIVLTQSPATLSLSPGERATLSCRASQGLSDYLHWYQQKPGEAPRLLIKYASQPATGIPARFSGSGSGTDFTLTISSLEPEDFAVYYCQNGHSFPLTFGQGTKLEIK | 8.92 |
| VH SEQ ID NO 514 / VL SEQ ID NO 366 (antibody, IgG4, V domains shown, humanized 11F2; IgG4 S228P/kappa) VH: QVQLQESGPGLVEPSDTLSLTCAVSGYSITSDSAWSWIRQPPGKKLEWIGYIQYSGSTNYNPSLKSRVTMSRDTSKNQFSLKLSSVTALDTAVYYCARSVNYYGNSFAVGYWGQGTLVTVSS VL: EIVLTQSPATLSLSPGERATLSCRASQGLSDYLAWYQQKPGEAPRLLIKYASQPATGIPARFSGSGSGTDFTLTISSLEPEDFAVYYCQNGHSFPLTFGQGTKLEIK | 8.85 |
